Source: the array DNA melting data of Ke et al. (doi:10.1101/2024.01.08.574731)

- TEST_DETAILS: folding enthalpy; higher = less favourable; fluorescence melt of hairpins on a sequencing array, two-state fit
- RUN_PARAMETERS: sodium 0.088 M
Please mark label 1 if the recorded folding enthalpy is equal to or greater than -30 kcal/mol, and label 0 if it falls below.

Observe how each entry below is paired with its result.
GACTTACGAAAGTAGGTC (((.(((....))).)))
label 1
GAGACCGAAAGGTCCCTC ((((((....)))..)))
label 1
GATCCTATCTAGGATC ((((((....))))))
label 0
GCAGGAGGAAACTCCTAC (.(((((....))))).)
label 1

Lab note: next sequence to report on.
Prompt: Reported folding enthalpy at or above -30 kcal/mol? GTTGTGCCGAAAGGCAAC (((..(((....))))))
Response: label 1
